All figures here come from the supplement of paper PMC10567573.

B1: TRIM63 (parent)
chain: QEKKLSFIEALIQQYQEQLDKSTK

Variants of: B1
procedureText: protein stability index of a GFP-peptide fusion (GPS, HEK-293T) (PSI 1-6); higher = more stable;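 note: lentivirally expressed fusions sorted by FACS into six bins by GFP to DsRed ratio, PSI derived from sequencing read proportions per bin multiplied by bin number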
appliedConditions: c terminus: a fixed tail appended
Please respond with reported protein stability index for every item in the list.
Number, no unit, nothing else.

## Input Which protein stability index is listed for I8V ?
## Output 1.28

## Input Which protein stability index is listed for Y15T ?
## Output 2.98

## Input Which protein stability index is listed for Q13L ?
## Output 2.1

## Input Which protein stability index is listed for K21I ?
## Output 2.86

## Input Which protein stability index is listed for I8Y ?
## Output 3.63

## Input Which protein stability index is listed for K3P ?
## Output 2.67

## Input Which protein stability index is listed for Q18P ?
## Output 3.31

## Input Which protein stability index is listed for Q16E ?
## Output 3.09

## Input Which protein stability index is listed for E2I ?
## Output 1.92

## Input Which protein stability index is listed for Q13G ?
## Output 2.53

## Input Which protein stability index is listed for K3S ?
## Output 3.6

## Input Which protein stability index is listed for T23G ?
## Output 2.77

## Input Which protein stability index is listed for Y15F ?
## Output 1.86

## Input Which protein stability index is listed for Q1E ?
## Output 2.74

## Input Which protein stability index is listed for K21S ?
## Output 2.78

## Input Which protein stability index is listed for L11S ?
## Output 5.13

## Input Which protein stability index is listed for K4I ?
## Output 1.96

## Input Which protein stability index is listed for S22A ?
## Output 2.23

## Input Which protein stability index is listed for I12T ?
## Output 4.45

## Input Which protein stability index is listed for T23R ?
## Output 2.66

## Input Which protein stability index is listed for S22I ?
## Output 2.74

## Input Which protein stability index is listed for D20W ?
## Output 1.83

## Input Which protein stability index is listed for F7A ?
## Output 4.05

## Input Which protein stability index is listed for D20R ?
## Output 1.77

## Input Which protein stability index is listed for A10I ?
## Output 2.54

## Input Which protein stability index is listed for Q18N ?
## Output 3.28

## Input Which protein stability index is listed for L5W ?
## Output 2.12

## Input Which protein stability index is listed for L11Y ?
## Output 3.31

## Input Which protein stability index is listed for E2L ?
## Output 2.73

## Input Which protein stability index is listed for E17K ?
## Output 2.16

## Input Which protein stability index is listed for Q1G ?
## Output 2.31

## Input Which protein stability index is listed for Q13C ?
## Output 2.67

## Input Which protein stability index is listed for K21E ?
## Output 3.26

## Input Which protein stability index is listed for S6W ?
## Output 1.46

## Input Which protein stability index is listed for E2H ?
## Output 2.58

## Input Which protein stability index is listed for E2D ?
## Output 2.74

## Input Which protein stability index is listed for S6D ?
## Output 3.02

## Input Which protein stability index is listed for L11G ?
## Output 4.46

## Input Which protein stability index is listed for E2V ?
## Output 1.74

## Input Which protein stability index is listed for Y15L ?
## Output 2.08

## Input Which protein stability index is listed for Q14P ?
## Output 3.86

## Input Which protein stability index is listed for K3D ?
## Output 3.27

## Input Which protein stability index is listed for E2P ?
## Output 2.93

## Input Which protein stability index is listed for Q18G ?
## Output 1.95

## Input Which protein stability index is listed for I12N ?
## Output 4.47

## Input Which protein stability index is listed for S6P ?
## Output 3.17

## Input Which protein stability index is listed for Q16K ?
## Output 4.03

## Input Which protein stability index is listed for A10Y ?
## Output 2.06

## Input Which protein stability index is listed for D20C ?
## Output 1.69

## Input Which protein stability index is listed for Q1K ?
## Output 2.34

## Input Which protein stability index is listed for Q13D ?
## Output 3.54

## Input Which protein stability index is listed for I12C ?
## Output 3.87

## Input Which protein stability index is listed for Q16T ?
## Output 2.62

## Input Which protein stability index is listed for Q14L ?
## Output 2.89

## Input Which protein stability index is listed for I12D ?
## Output 5.25

## Input Which protein stability index is listed for I12G ?
## Output 3.98

## Input Which protein stability index is listed for K4L ?
## Output 2

## Input Which protein stability index is listed for T23A ?
## Output 2.75

## Input Which protein stability index is listed for T23E ?
## Output 2.57

## Input Which protein stability index is listed for L11K ?
## Output 4.45

## Input Which protein stability index is listed for A10W ?
## Output 1.63

## Input Which protein stability index is listed for Y15H ?
## Output 3.38

## Input Which protein stability index is listed for S22H ?
## Output 2.7

## Input Which protein stability index is listed for T23N ?
## Output 2.31

## Input Which protein stability index is listed for Q18R ?
## Output 2.51

## Input Which protein stability index is listed for K24M ?
## Output 2.32

## Input Which protein stability index is listed for S6K ?
## Output 2.62

## Input Which protein stability index is listed for Q1L ?
## Output 1.49

## Input Which protein stability index is listed for Y15W ?
## Output 1

## Input Which protein stability index is listed for E2K ?
## Output 1.81

## Input Which protein stability index is listed for E17N ?
## Output 1.81

## Input Which protein stability index is listed for L19H ?
## Output 3.54

## Input Which protein stability index is listed for Q16G ?
## Output 3.81

## Input Which protein stability index is listed for Q13I ?
## Output 2.02

## Input Which protein stability index is listed for Y15I ?
## Output 2.1

## Input Which protein stability index is listed for E2Y ?
## Output 2.75

## Input Which protein stability index is listed for Q1S ?
## Output 2.4

## Input Which protein stability index is listed for Q18H ?
## Output 1.79

## Input Which protein stability index is listed for Q13T ?
## Output 2.74

## Input Which protein stability index is listed for I8F ?
## Output 2.78

## Input Which protein stability index is listed for K3T ?
## Output 3.04

## Input Which protein stability index is listed for D20M ?
## Output 2.98

## Input Which protein stability index is listed for K21A ?
## Output 2.92

## Input Which protein stability index is listed for A10Q ?
## Output 2.89

## Input Which protein stability index is listed for F7N ?
## Output 4.97
